Exercise: state measured melting point for each of the compounds provided.

Prompt: Return melting point for the following compound: O=C(c1c(C2CC2)nn2ccccc12)C1CC1
Response: 102 to 104 °C

Prompt: State its melting point: CCCc1c(OCCCOc2cc([N+](=O)[O-])c(Cl)cc2C)ccc(C(C)=O)c1O
Response: 113 to 115 °C

Prompt: Give reported melting point value for CNC(=NC#N)NCCCCCc1csc(NC(=N)N)n1
Response: 109 to 113 °C

Prompt: Give reported melting point value for CCCN1CCC(c2n[nH]c3cc(F)ccc23)CC1
Response: 175 to 177 °C

Prompt: Supply melting point value. Item: O=C(O)CCC12CCC(=O)N1C(=O)CC2
Response: 179 to 181 °C

Prompt: Report melting point, nothing else, for this compound: O=C(O)/C(=N/O)c1ccc(OCCOc2ccc3ccccc3c2)s1
Response: 138 to 140 °C

Prompt: Find the measured melting point of Fc1ccc2nc[nH]c(=S)c2c1 and report it.
Response: 294 to 297 °C

Prompt: Supply reported melting point belonging to this compound: Cc1cc(NC(=O)c2c(Cl)cccc2Cl)c2nccc(N3CCN(C)C3=O)c2c1C
Response: 213 to 216 °C

Prompt: Report melting point, nothing else, for this compound: COc1ccc(S(=O)(=O)NCCCO)c(OC)c1OC
Response: 95 to 97 °C

Prompt: Look up and report measured melting point for this entry: CC1CCCN(c2cncc(C(=O)Nc3nnn[nH]3)n2)C1 (stereo unspecified)
Response: 236 to 238 °C

Prompt: Answer with the recorded melting point for the compound listed here: O=C(O)C(=O)c1ccc(OCCOC2CCc3ccccc3C2)cc1 (stereo unspecified)
Response: 119 to 120 °C

====

Kindly state melting point for each of the entries shown.

Prompt: Write down melting point measured for item COc1ccc(CCc2nccn3c(Br)cc(Br)c23)cc1
Response: 75 to 76 °C

Prompt: Input CN1CCCC[C@H]1C[C@H](O)c1ccc(Br)cc1 , output reported melting point.
Response: 102 to 104 °C

Prompt: Identify measured melting point corresponding to O=c1c(Cl)c(Cl)cnn1[C@@H]1C[C@H](O)[C@@H](O)[C@H]1O (racemic)
Response: 163 °C

Prompt: Look up melting point of O=C1c2ccccc2S(=O)(=O)N1C1CCN(CC2COc3ccccc3O2)CC1 (stereo not given) and report it.
Response: 224 to 230 °C

Prompt: Using the record for CC1CCC(=O)N1CC(=O)NCCN(C(C)C)C(C)C (stereo not given) , state its measured melting point.
Response: 73 to 74 °C

====

Can you tell me melting point for the items I'm about to list?

Prompt: Provide one value: measured melting point of COC(=O)N(C)c1cc(C(C)(C)C)no1
Response: 70.5 to 71.5 °C

Prompt: Tell me measured melting point for CN1C(=O)N(c2cc(Cl)cc(Cl)c2)C(=O)[C@]12CN(c1ccc(Cl)nn1)C[C@H]2c1ccc(C#N)cc1 (relative stereo) please.
Response: 125 °C

Prompt: Consider the compound COc1ccc(N2CCNC2=O)cc1OC and give its recorded melting point.
Response: 168 °C

Prompt: Annotate the compound Cc1ccccc1Sc1cncc2sc(C(N)=O)cc12 with its measured melting point.
Response: 170 to 172 °C

Prompt: Supply melting point value. Item: COc1cc(-c2cc(C(C)C)nn2C)cc2oc(=O)c(C)c(C)c12
Response: 125 to 126 °C

Prompt: Determine its reported melting point: CC(CSC(=O)c1ccccc1)C(=O)N(CC(=O)O)C1Cc2ccccc2C1 (stereo not given)
Response: 113 to 115 °C

Prompt: Supply melting point value. Item: Cc1ccc(S(=O)(=O)NCCCCOc2ccc(-c3nc(-c4ccc(Cl)cc4)cs3)cc2)cc1
Response: 158 to 159 °C

Prompt: Report measured melting point; entry is COCCCNS(=O)(=O)NC(=O)OCCCc1ccc(OCCOC)cc1Oc1ncc(Cl)cc1Cl
Response: 87.9 to 89 °C

Prompt: Please list melting point recorded for the compound c1ccc(CCC2CCN(Cc3c[nH]c4ncccc34)CC2)cc1
Response: 162 to 163 °C

Prompt: Output melting point of CCOc1ncc(Br)cc1C(=O)O
Response: 122 to 124 °C

Prompt: Assign melting point to the following record: Nc1nc2c(ncn2C2CC(CO)C2CO)c(=O)[nH]1 (stereo not given)
Response: 91 to 92 °C

Prompt: Check the records and state melting point for CCOC(=O)C1(Nc2nc(-c3ccc(Br)cc3)cs2)CC1
Response: 152 to 154 °C

Prompt: State, in one line, measured melting point of Nc1nc2n(n1)Cc1ccccc1-2
Response: 193 to 194 °C

Prompt: Give reported melting point value for CC(C)(S)C(O)(Cn1cncn1)c1ccc(F)cc1F (single isomer, unassigned; (-))
Response: 105 °C

Prompt: Provide melting point value for the following compound: CCCCOCCOc1ccc(-c2ccc3c(c2)C=C(C(=O)Nc2ccc(S(=O)Cc4nccn4CC(=O)O)cc2)CCN3CC(C)C)cc1 (stereo not given)
Response: 146 to 148 °C

Prompt: Let me know recorded melting point for Cc1cc(OCc2ccccc2)cc(C)c1CC(=O)OCc1ccccc1 , thanks.
Response: 62 to 64 °C

Prompt: Item Oc1ccc(C2=C(c3ccccc3)CCCc3cc(OC4CCCCO4)ccc32)cc1 (stereo not given) : provide melting point
Response: 183 to 185 °C

Prompt: Consider the compound COC(=O)c1nc(Br)ccc1O and give its recorded melting point.
Response: 115 to 117 °C

Prompt: Check the records and state melting point for O=C(O)Cc1sc(Nc2ccccc2)nc1-c1ccc(Cl)cc1
Response: 256 to 257 °C

Prompt: Read the entry O=S1(=O)CCC(=S)Nc2ccc(Cl)cc2C1c1ccccc1F (stereo not given) and write its reported melting point.
Response: 226 °C

Prompt: Assign melting point to the following record: Cn1cc(C(=O)c2ccc3ccccc3c2)cc1C(=O)CCl
Response: 148 to 151 °C

Prompt: In one line, give reported melting point of the entry O=C(O)c1ccc(-c2nn(Cc3ccccc3)c3ccccc23)o1 .
Response: 200 to 202 °C

Prompt: Could you please provide reported melting point for CC(=O)N1CCN(Cc2nc(-c3ccc4c(c3)Nc3ccccc3S4)cs2)CC1 ? Thanks!
Response: 218 to 220 °C

Prompt: Please indicate melting point recorded for CCN(CC)Cc1nc(-c2ncn3c2[C@@H]2CCN2C(=O)c2c(Br)cccc2-3)no1
Response: 206 to 209 °C

Prompt: Please give measured melting point of the following entry: O=C(CC1Sc2ccccc2NC1=O)NCc1ccccc1 (stereo not given)
Response: 238 to 240 °C

Prompt: Query melting point for C[C@H](N)Cn1ncc2ccc3oc(C(=O)NCCCN4CCCC4=O)cc3c21
Response: 82 °C

Prompt: Give me measured melting point, please, for this compound: NC(=NO)c1ccc(-c2ccc(Cl)cc2)o1
Response: 167 to 169 °C

Prompt: Tell me its melting point given COc1cc(NC(=S)C2(C)CCc3c(C)c(O)c(C)c(C)c3O2)cc(OC)c1OC (stereo not given) as the entry.
Response: 147 to 148 °C

Prompt: Give recorded melting point. O=C1c2ccccc2C(OCCCl)N1c1ccccc1 (stereo not given)
Response: 71 °C

Prompt: Indicate its recorded melting point; the compound in question is CS(=O)(=O)Nc1ccc(C23CC2C(=O)NC3=O)cc1 (stereo not given)
Response: 208 to 209 °C

Prompt: Give recorded melting point. CCCn1c(=O)n(-c2ccc3c(c2)OCO3)c2ncc(N)cc21
Response: 177 to 178 °C

Prompt: Answer with the recorded melting point of COc1cc2c(cc1Nc1ncc(Cl)c(Nc3ccccc3OC)n1)CCOC(=O)N2C only.
Response: 192 to 194 °C

Prompt: State, in one line, measured melting point of CCCCCCCOc1c(OC)cc([N+](=O)[O-])c2nccc(C)c12
Response: 52 to 55 °C

Prompt: Check the records and state melting point for N#CCCc1cncnc1N[C@H]1CC[C@@H](c2ccccc2)CC1
Response: 58 to 59 °C

Prompt: Return the recorded melting point value; entry: CCCCc1nn(-c2cc([N+](=O)[O-])ccc2Cl)c(=O)n1Cc1ccc(-c2ccccc2S(=O)(=O)NC(C)(C)C)cc1F
Response: 124 to 126 °C

Prompt: Provide one value: measured melting point of CCCCc1nc2c(N)nc3ccccc3c2n1CCCCCCCCNS(=O)(=O)c1ccccc1
Response: 143 to 144 °C

Prompt: Could you please provide reported melting point for O=C1CC(c2cccs2)=Nc2ccc(I)cc2N1 ? Thanks!
Response: > 260 °C

Prompt: Retrieve melting point measured for N#Cc1c(N2CCCCC2)cc(-c2ccc(Br)cc2)c2c1Cc1ccccc1-2 and print it.
Response: 212 °C

Prompt: Answer with the recorded melting point for the compound listed here: CCc1cccc(C)c1COc1cc(C(=O)OC)cc2c1nc(C)n2C
Response: 157 °C

Prompt: Answer with reported melting point of CC1=C(C(=O)O)[C@H](c2cccc([N+](=O)[O-])c2)C(C(=O)OCOC(=O)C(C)(C)C)=C(C)N1
Response: 146 to 148 °C

Data provenance: a melting point compilation (Tetko et al.; mined from patent text by program, amines drawn as free bases though some values may be those of a salt)
